Values compiled from PubChem BioAssay (EPA / NIEHS).

- test: ATG_NRF2_ARE_CIS: Attagene CIS-FACTORIAL HepG2 Assay for human Nuclear Factor Erythroid 2 Related Factor 2 (NFR2) response to Antioxidant Response Elements (ARE) (AID 2282992)
- setup conditions: HepG2 Attagene ARE/NRF2 reporter, transcription factor activity; actives raise or lower the signal
The source made the active and inactive calls. Rule for the calls: active = hit-call score of the fitted dose curve at least 0.9, where 1 is the maximum; inactive = score below 0.9.
# valid calls are TRUE = active, FALSE = inactive; nothing else

Look over these answered cases.
compound	assigned class
N[C@@H](Cc1cc(I)c(Oc2cc(I)c(O)c(I)c2)c(I)c1)C(=O)O	TRUE
CCN(CCC#N)c1ccc(N=Nc2ccc([N+](=O)[O-])cc2)cc1	TRUE
Nc1ccccc1[N+](=O)[O-]	FALSE
Nc1ccc2cc(S(=O)(=O)O)cc(O)c2c1N=Nc1ccccc1C(F)(F)F	FALSE
CC(C)OCCO	FALSE
COc1cc(CCC(C)=O)ccc1O	FALSE

stdin: Hello, I am checking results. What call was entered for CCCCCCOC(=O)CCC ?
stdout: FALSE
